measurement.target: bacterial EPSP synthase DGT-29 (GENBANK YP_322772.1) variant DGT-29 v6 (G→A at residue 96), SEQ ID NO:11 (Trichormus variabilis, UniProt Q3MAV9, G96A)
Sequence (Q3MAV9 whole entry G96A): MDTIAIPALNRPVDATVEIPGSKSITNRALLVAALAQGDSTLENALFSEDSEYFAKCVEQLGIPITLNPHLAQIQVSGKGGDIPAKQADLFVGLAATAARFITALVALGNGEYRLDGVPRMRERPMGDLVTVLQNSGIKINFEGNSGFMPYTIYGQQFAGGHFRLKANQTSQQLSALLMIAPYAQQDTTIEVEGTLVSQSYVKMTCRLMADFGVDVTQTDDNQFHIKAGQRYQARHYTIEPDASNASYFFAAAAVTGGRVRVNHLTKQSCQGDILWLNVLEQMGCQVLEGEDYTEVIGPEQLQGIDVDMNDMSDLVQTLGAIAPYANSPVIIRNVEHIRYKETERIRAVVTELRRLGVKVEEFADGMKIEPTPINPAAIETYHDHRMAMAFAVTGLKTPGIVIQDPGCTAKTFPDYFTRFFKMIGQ
protocol.details: In vitro kinetic assay (inorganic phosphate production, malachite green)
settings: IC50 (glyphosate), *determined at 100 μM PEP; values greater than 50 are estimates
Excerpt: The novel DGT-14, DGT-12, DGT-18, DGT-29 and DGT-30 enzymes were obtained and the glycine to alanine mutation was introduced into the EPSP synthase enzymes at a location analogous to the G96A location described for the E. coli version of the EPSP synthase enzyme. The DGT-14 protein sequence was modified by introducing an alanine to replace the endogenous glycine of GENBANK ACC NO: ZP_01452683 at amino acid residue 101, thereby resulting in SEQ ID NO:1. […]
pIC50: −log10 of the molar value.
experimental.readout: pIC50

Lookup: Reported pIC50 for O=C(O)CNCP(=O)(O)O [glyphosate, N-(phosphonomethyl)glycine] : what is it?
Found: < 1.10
